System: Hepatitis C virus
Assay: Antiviral activity against HCV genotype 1b harboring D168A mutant infected in human Huh7 cells incubated for 96 hrs by luciferase assay
Assay type: functional, organism-based, Hepacivirus hominis
Conditions: subtype 1b, Huh-7, 96 h
PARAMETER: pEC50
pEC50 here is simply -log10 of the concentration when that concentration is written in mol/L.

Here is how some compounds turned out for pEC50.
ITEM SMILES	TESTED ON	VALUE MEASURED
CCc1nc2ccc(OC)cc2nc1O[C@@H]1C[C@H]2C(=O)N[C@]3(C(=O)NS(=O)(=O)C4CC4)C[C@H]3/C=C/CCCCC[C@H](NC(=O)OC(C)(C)C)C(=O)N2C1	Hepatitis C virus	8.20
COc1ccc2nc(O[C@@H]3C[C@H]4C(=O)N[C@]5(C(=O)NS(=O)(=O)C6(C)CC6)C[C@H]5/C=C/CCCCC[C@H](NC(=O)OCC5(C)CC5)C(=O)N4C3)c(C(F)(F)F)nc2c1	Hepatitis C virus	8.08
COc1ccc2nc(O[C@@H]3C[C@H]4C(=O)N[C@]5(C(=O)NS(=O)(=O)C6(C)CC6)C[C@H]5/C=C/CCCCC[C@H](NC(=O)O[C@@H]5CCC[C@H]5F)C(=O)N4C3)c(C(F)(F)F)nc2c1	Hepatitis C virus	8.64
COc1ccc2nc(O[C@@H]3C[C@H]4C(=O)N[C@]5(C(=O)NS(=O)(=O)C6(C)CC6)C[C@H]5/C=C/CCCCC[C@H](NC(=O)OC5CCCC5)C(=O)N4C3)c(C(F)(F)F)nc2c1	Hepatitis C virus	8.21

Next compound, please.
Hepatitis C virus data for COc1ccc2nc(O[C@@H]3C[C@H]4C(=O)N[C@]5(C(=O)NS(=O)(=O)C6(C)CC6)C[C@H]5/C=C/CCCCC[C@H](NC(=O)OC5CC5)C(=O)N4C3)c(C(F)(F)F)nc2c1 ; its pEC50: 7.85

###

Target: Hepatitis C virus serine protease, NS3/NS4A (Hepatitis C virus, UniProt A3EZI9+D2K2A8)
Experiment: Inhibition of HCV GT-1a NS3/4a protease using Ac-DE-D(Edans)-EE-Abu-c-[COO]-AS-K(Dabcy1)-NH2 preincubated for 1 hr followed by substrate addition
Format: protein complex, Hepatitis C virus subtype 1a
Overview of reported pKi across a group of molecules:
pKi here is simply -log10 of the concentration when that concentration is written in mol/L.

Here is how some molecules turned out for pKi.
MOLECULE	pKi
COc1ccc2nc(O[C@@H]3C[C@H]4C(=O)N[C@]5(C(=O)NS(=O)(=O)C6(C)CC6)C[C@H]5/C=C/CCCCC[C@H](NC(=O)OC5CCCC5)C(=O)N4C3)c(C(F)(F)F)nc2c1	8.09
COc1ccc2nc(C)c(O[C@@H]3C[C@H]4C(=O)N[C@]5(C(=O)NS(=O)(=O)C6(C)CC6)C[C@H]5/C=C/CCCCC[C@H](NC(=O)OC5C[C@@H]6C[C@@H]6C5)C(=O)N4C3)nc2c1 (some centres undefined)	9.30
COc1ccc2nc(O[C@@H]3C[C@H]4C(=O)N[C@]5(C(=O)NS(=O)(=O)C6(C)CC6)C[C@H]5/C=C/CCCCC[C@H](NC(=O)OC(C)(C)C)C(=O)N4C3)c(C(F)(F)F)nc2c1	8.24
COc1ccc2nc(O[C@@H]3C[C@H]4C(=O)N[C@]5(C(=O)NS(=O)(=O)C6(C)CC6)C[C@H]5/C=C/CCCCC[C@H](NC(=O)OC5(C)CCC5)C(=O)N4C3)c(C(F)(F)F)nc2c1	8.31
COc1ccc2nc(C)c(O[C@@H]3C[C@H]4C(=O)N[C@]5(C(=O)NS(=O)(=O)C6(C)CC6)C[C@H]5/C=C/CCCCC[C@H](NC(=O)O[C@H](C)C5CC5)C(=O)N4C3)nc2c1	8.82
COc1ccc2nc(C)c(O[C@@H]3C[C@H]4C(=O)N[C@]5(C(=O)NS(=O)(=O)C6(C)CC6)C[C@H]5/C=C/CCCCC[C@H](NC(=O)OC5CCC5)C(=O)N4C3)nc2c1	9.52

For this molecule ( COc1ccc2nc(C)c(O[C@@H]3C[C@H]4C(=O)N[C@]5(C(=O)NS(=O)(=O)C6(C)CC6)C[C@H]5/C=C/CCCCC[C@H](NC(=O)OC5CC(F)(F)C5)C(=O)N4C3)nc2c1 ), measured pKi is 9.22

For this molecule ( COc1ccc2nc(C)c(O[C@@H]3C[C@H]4C(=O)N[C@]5(C(=O)NS(=O)(=O)C6(C)CC6)C[C@H]5/C=C/CCCCC[C@H](NC(=O)OCC5(C(F)(F)F)CC5)C(=O)N4C3)nc2c1 ), measured pKi is 9.05

For this molecule ( COc1ccc2nc(O[C@@H]3C[C@H]4C(=O)N[C@]5(C(=O)NS(=O)(=O)C6(C)CC6)C[C@H]5/C=C/CCCCC[C@H](NC(=O)O[C@@H](C)C5CC5)C(=O)N4C3)c(C(F)(F)F)nc2c1 ), measured pKi is 8.00

For this molecule ( COc1ccc2nc(O[C@@H]3C[C@H]4C(=O)N[C@]5(C(=O)NS(=O)(=O)C6(C)CC6)C[C@H]5/C=C/CCCCC[C@H](NC(=O)O[C@H](C)C(F)(F)F)C(=O)N4C3)c(C(F)(F)F)nc2c1 ), measured pKi is 8.55

For this molecule ( COc1ccc2nc(O[C@@H]3C[C@H]4C(=O)N[C@]5(C(=O)NS(=O)(=O)C6(C)CC6)C[C@H]5/C=C/CCCCC[C@H](NC(=O)OC(C)(C)C(F)(F)F)C(=O)N4C3)c(C(F)(F)F)nc2c1 ), measured pKi is 8.44

For this molecule ( COc1ccc2nc(C)c(O[C@@H]3C[C@H]4C(=O)N[C@]5(C(=O)NS(=O)(=O)C6(C)CC6)C[C@H]5/C=C/CCCCC[C@H](NC(=O)O[C@@H](C)C5CC5)C(=O)N4C3)nc2c1 ), measured pKi is 8.74

For this molecule ( COc1ccc2nc(O[C@@H]3C[C@H]4C(=O)N[C@]5(C(=O)NS(=O)(=O)C6(C)CC6)C[C@H]5/C=C/CCCCC[C@H](NC(=O)OC5(C(F)(F)F)CCCC5)C(=O)N4C3)c(C(F)(F)F)nc2c1 ), measured pKi is 8.24

For this molecule ( COc1ccc2nc(O[C@@H]3C[C@H]4C(=O)N[C@]5(C(=O)NS(=O)(=O)C6(C)CC6)C[C@H]5/C=C/CCCCC[C@H](NC(=O)OCC(C)(C)C)C(=O)N4C3)c(C(F)(F)F)nc2c1 ), measured pKi is 8.54

These data points were gathered from ChEMBL document CHEMBL4828740.
